assay: Release rate of acetaldehyde from precursor (acid hydrolysis) in phosphate buffer, UV extinction at 280 nm; assay type: physicochemical; details: phosphate buffer; pH 3.18; calculated from rate constant; read-out: half life time λ (converted)
measurement-type: half-life at 2.5 mg/mL (min)

CCOC(C)OC(C)OCC (stereo not shown)
3.35

###

assay: Release rate of acetaldehyde from precursor (acid hydrolysis) in phosphate buffer, UV extinction at 280 nm; format: physicochemical; conditions: phosphate buffer; pH 3.0; read-out: half-life (acetaldehyde release) (converted)
measurement-type: half-life at 2.5 mg/mL (min)

CCOC(C)OC(C)OCC (stereo not drawn) [1-ethoxy-1-(1-ethoxy-ethoxy)-ethane]
5.1
CCOC(C)OCC(C)OC(C)OCC (stereo not drawn) [1,2-di[(1′-ethoxy)ethoyx]propane, 1,2-di[(1′-ethoxy)ethoxy]propane, reference compound]
10.4
CCOC(C)OCC [acetaldehyde diethyl acetal, reference compound]
9.65

###

test: Release rate of acetaldehyde from precursor (acid hydrolysis) in phosphate buffer, UV extinction at 280 nm; type: physicochemical; details: phosphate buffer, pH 3.5; read-out: half-life (acetaldehyde release) (converted)
Catalogue of half-life at 2.5 mg/mL readings, one per entry.
measurement-type: half-life at 2.5 mg/mL (min)

CCOC(C)OCC [acetaldehyde diethyl acetal, reference compound]
41.5
CCOC(C)OCC(C)OC(C)OCC (stereo not drawn) [1,2-di[(1′-ethoxy)ethoyx]propane, 1,2-di[(1′-ethoxy)ethoxy]propane, reference compound]
65.1
CCOC(C)OC(C)OCC (stereo not drawn) [1-ethoxy-1-(1-ethoxy-ethoxy)-ethane]
16.1

###

experiment: Release rate of acetaldehyde from precursor (acid hydrolysis) in phosphate buffer, UV extinction at 280 nm; type: physicochemical; settings: phosphate buffer; pH 2.8; calculated from rate constant; read-out: half life time λ (converted)
measurement-type: half-life at 2.5 mg/mL (min)

CCOC(C)OC(C)OCC (stereo not shown)
1.93

###

experiment: Release rate of acetaldehyde from precursor (acid hydrolysis) in phosphate buffer, UV extinction at 280 nm; format: physicochemical; conditions: phosphate buffer; pH 3.81; calculated from rate constant; read-out: half life time λ (converted)
measurement-type: half-life at 2.5 mg/mL (min)

CCOC(C)OC(C)OCC (stereo not shown)
16.7

###

test: Release rate of acetaldehyde from precursor (acid hydrolysis) in phosphate buffer, UV extinction at 280 nm; type: physicochemical; conditions: phosphate buffer; pH 4.14; calculated from rate constant; read-out: half life time λ (converted)
measurement-type: half-life at 2.5 mg/mL (min)

CCOC(C)OC(C)OCC (stereo not shown)
30.2

Reference for the values: patent US20060034992A1
